# target under test: CMKLR1 (Homo sapiens, UniProt Q99788)
# Construct: expressed in transfected cells; host or cells: CHO-K1 cells expressing Gα-16 (CHO-Ga16-CMKLR1)
# Sequence (Q99788 whole entry): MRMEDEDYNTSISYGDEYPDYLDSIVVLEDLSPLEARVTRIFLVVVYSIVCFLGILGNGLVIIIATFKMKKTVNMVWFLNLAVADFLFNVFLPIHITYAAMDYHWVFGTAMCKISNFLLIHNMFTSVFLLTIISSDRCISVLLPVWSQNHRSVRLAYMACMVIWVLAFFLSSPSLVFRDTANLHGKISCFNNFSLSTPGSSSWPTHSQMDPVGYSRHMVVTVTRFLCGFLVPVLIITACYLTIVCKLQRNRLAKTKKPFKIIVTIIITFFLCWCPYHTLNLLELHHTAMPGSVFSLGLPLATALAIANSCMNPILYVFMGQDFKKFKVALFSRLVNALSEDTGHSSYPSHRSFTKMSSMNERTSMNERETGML
# protocol text: Calcium mobilization assay (CHO-Ga16-CMKLR1 cells, chemerin-9 induced signal)
# Type: cell-based
# test settings: read-out: CMKLR1 activity in CHO cells (% inhibition at 10 µM), 10 µM compound, relative to calcium signal induced by 2.5 nM chemerin-9
parameter: inhibition at 10 µM (%)
// units = %; emit number, no label

- compound: "CC(CC(=O)O)c1ccc(OCc2ccc3c(-c4ccccc4)nn(CC4CCCCC4)c3c2)cc1 (stereo not shown)"
  uom: "%"
  measurement: 28

I am curious: what inhibition at 10 µM value has been reported for CC(CC(=O)O)c1ccc(OCc2ccc3c(-c4ccccc4)nn(C)c3c2)cc1 (stereo not shown) ? 24

I am curious: what inhibition at 10 µM value has been reported for CC(CC(=O)O)c1ccc(OCc2ccc3c(-c4ccccc4)nn(CC4CC4)c3c2)cc1 (stereo not shown) ? 35

I am curious: what inhibition at 10 µM value has been reported for CCCn1nc(-c2ccccc2)c2ccc(COc3ccc(C(C)CC(=O)O)cc3)cc21 (stereo not shown) ? 60

I am curious: what inhibition at 10 µM value has been reported for CCC(CC(=O)O)c1ccc(OCc2ccc3c(-c4ccccc4)nn(C(C)C)c3c2)cc1 (stereo not shown) ? 81

I am curious: what inhibition at 10 µM value has been reported for CC(C)n1nc(-c2ccccc2)c2ccc(COc3ccc(CC(C)(C)C(=O)O)cc3)cc21 ? 10

I am curious: what inhibition at 10 µM value has been reported for CC(CC(=O)O)c1ccc(OCc2ccc3c(-c4ccccc4)nn(Cc4ccccc4)c3c2)cc1 (stereo not shown) ? 23

I am curious: what inhibition at 10 µM value has been reported for CC(C)C(CC(=O)O)c1ccc(OCc2ccc3c(-c4ccccc4)nn(C(C)C)c3c2)cc1 (stereo not shown) ? 25

I am curious: what inhibition at 10 µM value has been reported for CC(C)Cn1nc(-c2ccccc2)c2ccc(COc3ccc(C(C)CC(=O)O)cc3)cc21 (stereo not shown) ? 52

I am curious: what inhibition at 10 µM value has been reported for CC(CC(=O)O)c1ccc(OCc2ccc3c(-c4ccccc4)nn(C(C)C)c3c2)cc1 (stereo not shown) ? 81

====

Measured IC50 by item
# target under test: CMKLR1 (Homo sapiens, UniProt Q99788)
# Construct: expressed in transfected cells; host or cells: CHO-K1 cells expressing Gα-16 (CHO-Ga16-CMKLR1)
# protocol text: Calcium mobilization assay (CHO-Ga16-CMKLR1 cells, chemerin-9 induced signal)
# Type: cell-based
# test settings: Table 3, IC50 class, calcium signal induced by 2.5 nM chemerin-9

Consider the reported IC50 for these compounds:
- compound: "C[C@@H](CC(=O)O)c1ccc(OCc2ccc3c(-c4cc(Cl)c(O)c(Cl)c4)nn(C4CCCC4)c3c2)cc1 [Compound 44]"
  measurement: "100 to 1000 nM"
- compound: "CC(CC(=O)O)c1ccc(OCc2ccc3c(-c4cc(Cl)nc(Cl)c4)nn(C4CCCC4)c3c2)cc1 (stereo not drawn) [Compound 33]"
  measurement: "> 1000 nM"

I am curious: what IC50 value has been reported for C[C@@H](CC(=O)O)c1ccc(OCc2ccc3c(-c4cc(Cl)c(O)cc4Cl)nn(C4CCCC4)c3c2)cc1 [Compound 46] ? 100 to 1000 nM

I am curious: what IC50 value has been reported for C[C@@H](CC(=O)O)c1ccc(OCc2ccc3c(-c4ccc(C(=O)O)cc4)nn(C4CCCC4)c3c2)cc1 [Compound 51] ? 100 to 1000 nM

I am curious: what IC50 value has been reported for C[C@@H](CC(=O)O)c1ccc(OCc2ccc3c(-c4cc(F)c(O)cc4F)nn(C4CCCC4)c3c2)cc1 [Compound 45] ? 100 to 1000 nM

I am curious: what IC50 value has been reported for CC(CC(=O)O)c1ccc(OCc2ccc3c(-c4ccc5c(c4)OCO5)nn(C4CCCC4)c3c2)cc1 (stereo not drawn) [Compound 31] ? > 1000 nM

====

# target under test: CMKLR1 (Homo sapiens, UniProt Q99788)
# Construct: expressed in transfected cells; host or cells: CHO-K1 cells expressing Gα-16 (CHO-Ga16-CMKLR1)
# protocol text: Calcium mobilization assay (CHO-Ga16-CMKLR1 cells, chemerin-9 induced signal)
# Format: cell-based
# test settings: Table 3, IC50 class, calcium signal induced by 2.5 nM chemerin-9
pIC50: −log10 of the molar value.
Measured pIC50 by item

Consider the reported pIC50 for these molecules:
- molecule: "C=CCOc1ccc(-c2nn(C3CCCC3)c3cc(COc4ccc(C(C)CC(=O)O)cc4)ccc23)cc1 (stereo not shown) [Compound 30]"
  measurement: "6.00 to 7.00"
- molecule: "C[C@@H](CC(=O)O)c1ccc(OCc2ccc3c(-c4ccc(O)c([N+](=O)[O-])c4)nn(C4CCCC4)c3c2)cc1 [Compound 37]"
  measurement: "< 6.00"
- molecule: "C[C@@H](CC(=O)O)c1ccc(OCc2ccc3c(-c4ccc(O)c(O)c4)nn(C4CCCC4)c3c2)cc1 [Compound 38]"
  measurement: "< 6.00"
- molecule: "C[C@@H](CC(=O)O)c1ccc(OCc2ccc3c(-c4cc(F)c(CO)c(F)c4)nn(C4CCCC4)c3c2)cc1 [Compound 47]"
  measurement: "> 7.00"

I am curious: what pIC50 value has been reported for CC(CC(=O)O)c1ccc(OCc2ccc3c(-c4cc(F)c(/C=N/O)c(F)c4)nn(C4CCCC4)c3c2)cc1 (stereo not shown) [Compound 34] ? 6.00 to 7.00

I am curious: what pIC50 value has been reported for CC(CC(=O)O)c1ccc(OCc2ccc3c(-c4nnn[nH]4)nn(C4CCCC4)c3c2)cc1 (stereo not shown) [Compound 32] ? < 6.00

I am curious: what pIC50 value has been reported for C[C@@H](CC(=O)O)c1ccc(OCc2ccc3c(-c4ccc(O)cc4Cl)nn(C4CCCC4)c3c2)cc1 [Compound 42] ? 6.00 to 7.00

====

# target under test: CMKLR1 (Homo sapiens)
# Construct: expressed in transfected cells; host or cells: CHO-K1 cells expressing Gα-16 (CHO-Ga16-CMKLR1)
# protocol text: Calcium mobilization assay (CHO-Ga16-CMKLR1 cells, chemerin-9 induced signal)
# Format: cell-based
# test settings: Table 4, IC50 class, calcium signal induced by 2.5 nM chemerin-9
pIC50: −log10 of the molar value.
Measured pIC50 by item

Consider the reported pIC50 for these compounds:
- compound: "CC(CC(=O)O)c1ccc(OCc2cnc3c(-c4cc(F)c(O)c(F)c4)nn(C4CCCC4)c3c2)cc1 (stereo not shown) [Compound 74]"
  target under test: "CMKLR1 (Homo sapiens)"
  pIC50: "6.00 to 7.00"
- compound: "CC(CC(=O)O)c1ccc(OCc2ccc3c(-c4ccc(N)cc4)nn(C4CCCC4)c3c2)cc1 (stereo not shown) [Compound 59]"
  target under test: "CMKLR1 (Homo sapiens)"
  pIC50: "< 6.00"
- compound: "CC(=O)Nc1ccc(-c2nn(C3CCCC3)c3cc(COc4ccc(C(C)CC(=O)O)cc4)ccc23)cc1 (stereo not shown) [Compound 61]"
  target under test: "CMKLR1 (Homo sapiens)"
  pIC50: "< 6.00"
- compound: "C[C@@H](CC(=O)O)c1ccc(OCc2ccc3c(-c4cccc(CO)c4)nn(C4CCCC4)c3c2)cc1 [Compound 54]"
  target under test: "CMKLR1 (Homo sapiens)"
  pIC50: "< 6.00"
- compound: "CC(CC(=O)O)c1ccc(OCc2cnc3c(-c4ccc(O)cc4)nn(C4CCCC4)c3c2)cc1 (stereo not shown) [Compound 72]"
  target under test: "CMKLR1 (Homo sapiens)"
  pIC50: "6.00 to 7.00"

With those in mind, consider the next compound.
Identify the measured pIC50 of CC(=O)Nc1ccc(-c2nn(C3CCCC3)c3cc(COc4ccc(C(C)CC(=O)O)cc4)ccc23)cc1 (stereo not shown) [Compound 60] for CMKLR1 (Homo sapiens). < 6.00

====

Measured IC50 by item
# target under test: CMKLR1 (Homo sapiens, UniProt Q99788)
# Construct: expressed in transfected cells; host or cells: CHO-K1 cells expressing Gα-16 (CHO-Ga16-CMKLR1)
# protocol text: Calcium mobilization assay (CHO-Ga16-CMKLR1 cells, chemerin-9 induced signal)
# Assay type: cell-based
# test settings: Table 4, IC50 class, calcium signal induced by 2.5 nM chemerin-9
# Source text: To establish a CMKLR1 calcium mobilization cell evaluation system, CHO-K1 cells expressing Gα-16 were transfected with pcDNA3.1-derived human CMKLR1-expressing plasmids using Lipofectamine 2000 (Invitrogen, Waltham, Massachusetts, USA). […]

Consider the reported IC50 for these compounds:
- compound: "C[C@@H](CC(=O)O)c1ccc(OCc2cc(F)c3c(-c4cc(Cl)c(O)c(Cl)c4)nn(C4CCCC4)c3c2)cc1"
  IC50: "< 100 nM"
- compound: "COc1ccc(-c2nn(C3CCCC3)c3cc(COc4ccc([C@H](C)CC(=O)O)cc4)ccc23)cc1"
  IC50: "> 1000 nM"
- compound: "Cc1cc(-c2nn(C3CCCC3)c3cc(COc4ccc([C@@H](C)CC(=O)O)cc4)ccc23)cc(C)c1O"
  IC50: "100 to 1000 nM"

I am curious: what IC50 value has been reported for CC(CC(=O)O)c1ccc(OCc2cnc3c(-c4ccc(O)c(Cl)c4)nn(C4CCCC4)c3c2)cc1 (stereo not shown) ? 100 to 1000 nM

I am curious: what IC50 value has been reported for C[C@@H](CC(=O)O)c1ccc(OCc2ccc3c(-c4ccc(O)c(F)c4F)nn(C4CCCC4)c3c2)cc1 ? > 1000 nM

I am curious: what IC50 value has been reported for CC(CC(=O)O)c1ccc(OCc2cnc3c(-c4cc(Cl)c(O)c(Cl)c4)nn(C4CCCC4)c3c2)cc1 (stereo not shown) ? 100 to 1000 nM

I am curious: what IC50 value has been reported for C[C@@H](CC(=O)O)c1ccc(OCc2ccc3c(-c4ccc(C(=O)O)cc4F)nn(C4CCCC4)c3c2)cc1 ? 100 to 1000 nM
